# reported pEC50; entries follow
# EXPERIMENTAL_SYSTEM: folate receptor on KB cells (Homo sapiens, UniProt P15328)
# Sequence (P15328 25-234): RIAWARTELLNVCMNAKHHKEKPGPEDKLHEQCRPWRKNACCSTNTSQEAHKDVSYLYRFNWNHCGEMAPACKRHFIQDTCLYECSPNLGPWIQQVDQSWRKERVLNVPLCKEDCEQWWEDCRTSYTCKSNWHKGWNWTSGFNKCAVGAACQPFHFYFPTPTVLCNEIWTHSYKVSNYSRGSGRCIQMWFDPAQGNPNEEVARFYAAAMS
# MEASUREMENT_PROTOCOL: Relative binding affinity: competition with 3H-folic acid for binding to KB cells
# PARTICULARS: 100 nM 3H-folic acid, 15 minutes on ice, read-out: EC50 (displacement of 3H-folic acid bound to folate receptor)
pEC50 is a log-scale quantity: -log10 of the concentration expressed in molar.

# annotated cases, reported pEC50 shown
Nc1nc2ncc(CNc3ccc(C(=O)NC(C(=O)O)c4ccccn4)cc3)nc2c(=O)[nH]1 (stereo not drawn) [Pte-AP] | 6.71
Nc1nc(O)c2nc(CNc3ccc(C(=O)O[C@H](C(=O)O)c4ccccc4)cc3)cnc2n1 [ACBP, (S)-α-carboxybenzoyl pteroate] | 6.69

In the following, a different compound is considered.
get_value(item= NNC(=O)c1ccc(NCc2cnc3nc(N)nc(O)c3n2)cc1 [Pteroyl hydrazide, pteroyl hydrazide] , readout=pEC50) returns 7.03

Just for reference, patent US8470822B2 is where these values come from.
